# assayed system: mycobacterial protein kinase G (PknG) (Mycobacterium tuberculosis, UniProt P9WI73)
# Construct: GST; made in house; host or cells: E. coli BL21
# Sequence (P9WI73 whole entry): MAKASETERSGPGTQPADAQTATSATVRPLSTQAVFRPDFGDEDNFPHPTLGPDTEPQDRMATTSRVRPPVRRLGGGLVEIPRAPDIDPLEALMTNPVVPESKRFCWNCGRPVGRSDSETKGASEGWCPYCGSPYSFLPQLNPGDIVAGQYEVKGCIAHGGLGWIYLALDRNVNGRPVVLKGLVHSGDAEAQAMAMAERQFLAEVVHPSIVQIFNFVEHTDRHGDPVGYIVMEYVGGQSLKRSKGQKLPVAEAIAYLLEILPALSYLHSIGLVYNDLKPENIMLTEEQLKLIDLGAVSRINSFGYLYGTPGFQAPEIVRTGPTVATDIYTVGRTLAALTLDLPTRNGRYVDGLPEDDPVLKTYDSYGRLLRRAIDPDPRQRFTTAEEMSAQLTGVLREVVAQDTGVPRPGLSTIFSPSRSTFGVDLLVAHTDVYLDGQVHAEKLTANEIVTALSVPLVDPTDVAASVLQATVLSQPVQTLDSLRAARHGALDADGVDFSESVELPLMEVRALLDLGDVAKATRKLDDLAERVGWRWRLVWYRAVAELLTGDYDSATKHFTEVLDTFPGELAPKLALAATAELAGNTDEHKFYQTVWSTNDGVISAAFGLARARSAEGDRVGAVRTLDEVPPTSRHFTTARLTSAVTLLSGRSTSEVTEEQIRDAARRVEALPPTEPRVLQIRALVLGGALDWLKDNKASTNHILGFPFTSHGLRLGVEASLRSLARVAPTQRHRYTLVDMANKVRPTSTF
# protocol text: biochemical
# experimental conditions: ATP near Km; read-out: Inhibition of PknG (IC50, [μM])
Please go through the items and note down their IC50.

Before answering, review these 6 worked examples.
compound="CC(=O)Nc1sc2c(c1C(N)=O)CCC(C)C2 (stereo not shown)" measured_endpoint=IC50 reported_value="~12 µM"
compound=CCOC(=O)c1c(NC(=O)C(C)C)sc2c1CCCC2 measured_endpoint=IC50 reported_value="> 30 µM"
compound="CC1CCc2c(sc(NC(=O)Cn3cnc([N+](=O)[O-])n3)c2C(N)=O)C1 (stereo not shown)" measured_endpoint=IC50 reported_value="> 30 µM"
compound=NC(=O)c1c(NC(=O)C2CCC2)sc2c1CCCC2 measured_endpoint=IC50 reported_value="~3 µM"
compound=CC(=O)Nc1sc2c(c1C(N)=O)CCCC2 measured_endpoint=IC50 reported_value="> 30 µM"
compound="CCC(C)C(=O)Nc1sc2c(c1C(N)=O)CCCC2 (stereo not shown)" measured_endpoint=IC50 reported_value="~15 µM"

Moving on to the next compound.
The compound "O=C(Nc1sc2c(c1C(=O)NCCO)CCCC2)c1ccco1" on mycobacterial protein kinase G (PknG) (Mycobacterium tuberculosis, UniProt P9WI73): IC50 was 16 µM
